- TARGET DESC: T1, insulin-like growth factor II (IGF-II), amino acids 1-67 (human, UniProt P01344 25-91)
- T1 construct: recombinant; also called IGF-II (67aa); IGF2
- T1 sequence (P01344 25-91): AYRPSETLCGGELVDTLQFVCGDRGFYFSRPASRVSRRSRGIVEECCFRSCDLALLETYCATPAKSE
- METHOD: SPR, IgG on Protein G', then ligand, then BP; competitor BP2; 0 = no significant competition, 5 = competes strongly
In this section we review reported competition score values for a set of binders.

{"BINDER": "M0072-C06 IgG (parental) (antibody, V domains shown) VH: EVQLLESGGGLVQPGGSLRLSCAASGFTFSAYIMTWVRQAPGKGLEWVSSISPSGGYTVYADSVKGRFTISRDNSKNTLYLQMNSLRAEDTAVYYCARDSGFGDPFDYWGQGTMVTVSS VL: DIQMTQSPSSLSASVGDRVTITCRASQSIRNYLNWYQQKPGKAPKLLIYAASKLEDGVPSRFSGSGTGTDFTLTIRSLQPEDFASYFCQQSYSSPGITFGPGTKVEIK", "competition score / score 0-5": 3}
{"BINDER": "M0072-G06 IgG (parental) (antibody, V domains shown) VH: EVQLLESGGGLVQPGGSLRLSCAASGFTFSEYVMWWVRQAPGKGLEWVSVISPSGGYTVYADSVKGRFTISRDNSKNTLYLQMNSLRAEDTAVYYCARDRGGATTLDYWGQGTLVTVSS VL: DIQMTQSPSTLSASVGDRVTITCRASQTISSWLAWYQQKPGKAPKLMIYKAASLGSEVPSRFSGSGSGTEFTLTISSLQPEDFSTYYCQQYKTYPVTFGQGTRLEIK", "competition score / score 0-5": 2}
{"BINDER": "M0063-F02 IgG (parental) (antibody, V domains shown) VH: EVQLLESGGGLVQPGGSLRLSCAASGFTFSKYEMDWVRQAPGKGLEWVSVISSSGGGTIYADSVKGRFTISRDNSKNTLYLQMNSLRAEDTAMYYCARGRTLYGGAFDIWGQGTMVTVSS VL: DIQMTQSPSSLSASVGDRVTITCRASQPINTYLNWYQQRPGKAPRILIYTSSTLQSGVPSRFSGSGSGTDFTLTISSVQPEDFATYYCQQSYSFPLTFGGGTKVEIK", "competition score / score 0-5": 1}

Data origin: patent US20110165145A1
